# Test summary: Ocular tissue distribution and pharmacokinetics, 7.5 and 15 mg/kg oral, pigmented Dutch Belted rabbits (Example 7)
# Assay type: in vivo
# Conditions used: Dutch Belted, rabbit, plasma, oral, 15 mg/kg, DB rabbits, Day 15, 15 mg/kg BID, 0 hr; read-out: Mean Plasma Concentration
Value type: concentration at 0 h (ng/mL)
Note: unit ng/mL is implicit; provide only the numeric part.

Sample `CC(=O)c1nn(CC(=O)N2C[C@H](F)C[C@H]2C(=O)Nc2cccc(Br)n2)c2ccc(-c3cnc(C)nc3)cc12` ; concentration at 0 h observed: 36.4

----------
# Test summary: Ocular tissue distribution and pharmacokinetics, 15 mg/kg BID oral, nonpigmented New Zealand White rabbits (Example 7)
# Format: in vivo
# Conditions used: New Zealand White, rabbit, choroid-RPE, oral; NZW rabbits, Day 15, 15 mg/kg BID, 6 hr; read-out: Mean Choroid-RPE Concentration
Value type: concentration at 6 h (ng/g)
Note: unit ng/g is implicit; provide only the numeric part.

Sample `CC(=O)c1nn(CC(=O)N2C[C@H](F)C[C@H]2C(=O)Nc2cccc(Br)n2)c2ccc(-c3cnc(C)nc3)cc12` ; concentration at 6 h observed: 68.6
